Provenance of the data: patent US20110288086A1

Exercise: state measured inhibition at 10 µM for each of the molecules provided.
- Tested on: Hep3B2.1-7 human hepatoma carcinoma cells
- method_summary: Tumor cell inhibition ratio, CCK-8 kit, Hep3B
- measurement_parameters: read-out: Antiproliferative effect (inhibition ratio) Hep3B
Where a name gives a salt, the structure may show the parent alone.
I only need the number, in %, no unit after it.

Input line: What is its inhibition at 10 µM for Hep3B2.1-7 human hepatoma carcinoma cells? Entry: "COc1cc2c(cc1OCCCN1CCNCC1)C1=Nc3cccc(F)c3CN1C=N2"
Output line: 21.3

Input line: What is its inhibition at 10 µM for Hep3B2.1-7 human hepatoma carcinoma cells? Entry: "COCCOc1cc2c(cc1OCCOC)C1=Nc3ccc(OCc4cccc(F)c4)c(Cl)c3CN1C=N2"
Output line: 45.1

Input line: What is its inhibition at 10 µM for Hep3B2.1-7 human hepatoma carcinoma cells? Entry: "COCCOc1cc2c(cc1OCCOC)C1=Nc3cccc(C#N)c3CN1C=N2"
Output line: 40.4

Input line: What is its inhibition at 10 µM for Hep3B2.1-7 human hepatoma carcinoma cells? Entry: "COc1cc2c(cc1OCCCN1CCCC1)C1=Nc3cccc(Cl)c3CN1C=N2"
Output line: 60.3

Input line: What is its inhibition at 10 µM for Hep3B2.1-7 human hepatoma carcinoma cells? Entry: COCCOc1cc2c(cc1OCCOC)C1=Nc3cc(Cl)ccc3C(C)N1C=N2.O=C(O)CC(O)C(=O)O (stereo not shown) [Compound V-22, malate]
Output line: 62.3

Input line: What is its inhibition at 10 µM for Hep3B2.1-7 human hepatoma carcinoma cells? Entry: COCCOc1cc2c(cc1OCCOC)C1=Nc3cccc(F)c3CN1C=N2 [Compound V-3, mesylate]
Output line: 42.3

Input line: What is its inhibition at 10 µM for Hep3B2.1-7 human hepatoma carcinoma cells? Entry: "COCCOc1cc2c(cc1OCCOC)C1=Nc3cc(C#N)ccc3CN1C=N2"
Output line: 58.4

Input line: What is its inhibition at 10 µM for Hep3B2.1-7 human hepatoma carcinoma cells? Entry: Br.COCCOc1cc2c(cc1OCCOC)C1=Nc3cccc(N)c3CN1C=N2 [Compound V-6, hydrobromide trihydrate]
Output line: 51.3

Input line: What is its inhibition at 10 µM for Hep3B2.1-7 human hepatoma carcinoma cells? Entry: "COCCOc1cc2c(cc1OCCOC)C1=Nc3ccc(F)c(Cl)c3CN1C=N2"
Output line: 64.7

Input line: What is its inhibition at 10 µM for Hep3B2.1-7 human hepatoma carcinoma cells? Entry: "COCCOc1cc2c(cc1OCCOC)C1=Nc3cc(F)ccc3CN1C=N2"
Output line: 30.3

Input line: What is its inhibition at 10 µM for Hep3B2.1-7 human hepatoma carcinoma cells? Entry: "COCCOc1cc2c(cc1OCCOC)C1=Nc3cccc(O)c3CN1C=N2"
Output line: 52.4

Input line: What is its inhibition at 10 µM for Hep3B2.1-7 human hepatoma carcinoma cells? Entry: "C#Cc1ccc2c(c1)N=C1c3cc(OCCOC)c(OCCOC)cc3N=CN1C2"
Output line: 53.5

Input line: What is its inhibition at 10 µM for Hep3B2.1-7 human hepatoma carcinoma cells? Entry: "COCCOc1cc2c(cc1OCCOC)C1=Nc3cccc([N+](=O)[O-])c3CN1C=N2"
Output line: 22.3

Input line: What is its inhibition at 10 µM for Hep3B2.1-7 human hepatoma carcinoma cells? Entry: "COCCOc1cc2c(cc1OCCOC)C1=Nc3cc(O)ccc3CN1C=N2"
Output line: 40.1

Input line: What is its inhibition at 10 µM for Hep3B2.1-7 human hepatoma carcinoma cells? Entry: COCCOc1cc2c(cc1OCCOC)C1=Nc3cccc(Br)c3CN1C=N2.Cl [Compound V-2, hydrochloride hemihydrate]
Output line: 53.5

Input line: What is its inhibition at 10 µM for Hep3B2.1-7 human hepatoma carcinoma cells? Entry: COCCOc1cc2c(cc1OCCOC)C1=Nc3cccc(Cl)c3CN1C=N2.Cl [Compound V-1, hydrochloride monohydrate]
Output line: 50.4
